Published IC50 for Autotaxin (Homo sapiens), assembled from different documents, is shown next.

Asked: Suppose we examine the molecule CCCCCC1CN(c2ccc(C(=O)N(C)C)cc2)C(=O)c2cc(-c3ccc(Cl)cc3)nn21 (stereo not shown) ; what IC50 value has been reported?
Given back: ≥ 1000 nM

Asked: Similarly, "Cc1c(Sc2cccc(C(=O)O)c2)c2ccc(Cl)c(F)c2n1CC(=O)N1CC(N2CCS(=O)(=O)CC2)C1" ?
Given back: ≤ 500 nM

Asked: Similarly, CCCCCC1CN(CC(=O)NC(Cc2ccccc2)C(=O)O)C(=O)c2cc(-c3ccc(Cl)cc3)nn21 (stereo not shown) ?
Given back: < 10 nM

Asked: Similarly, O=C(O)C1CCC(NCc2ccc3c(C(F)(F)F)c(O[C@H]4CC[C@@H](C(F)(F)F)CC4)ccc3c2)C1 (single isomer, unassigned) ?
Given back: ≤ 500 nM
